For each entry below, report its pKd value.
Target: RSV postfusion F (postF), F ΔFP (Respiratory Syncytial Virus, UniProt P03420 26-513)
Assay: BLI, IgG on anti-human IgG sensor, 100 nM antigen, 1:1 fit
Answers are plain numbers, as −log10 of the molar value.

binder | pKd
ADI-41536 (antibody, V domains shown, also called Ab 808; Antibody Number 808) VH: EVQLVESGAGLLKPSETLSLTCVVYGGSFSGYYWSWIRQPPGKGLEWVGDINHSTTTNYNPSLESRITISIDTSKNQFSLNLSSVTAADSAVYYCARGPKECTSSSCDRFGVDYFYYGMDVWGRGTTVTVSS VL: QSVLTQPPSVSGAPGQRVTISCTGSSANIGAGYDVHWYQQFPGTAPKLLIFGNSNRPSGVPDRFSGSKSGTSASLAITGLQAEDEADYYCQSYDGTLGGWVFGGGTQLTVL | 9.32

Report pKd for every entry below.
1. ADI-41549 (antibody, V domains shown, also called Ab 821; Antibody Number 821) VH: EVQLLESGGGVVQPGGSLRLSCAASGFTFSGYGMHWVRQAPGKGLEWVAFIQYNGSNKYYADSVKGRFTISRDNSKNTLYVQLNSLRAEDTAVYYCATDILVVPAATPLISYYFGMDVWGQGTTVTVSS VL: QSALTQPASVSGSPGQSITISCTGTSSDVGGYNYVSWYQQYPGKAPKLMIYEVTNRPSGVSNRFSGSKSGNTASLTISGLQAEDEADYYCCSYTSTNTRVFGTGTKVTVL
2. ADI-41455 (antibody, V domains shown) VH: QVQLQESGPGLVKPSQTLSLTCSVSEGSVISGDYYWSWIRQSPGKGLEWLGYIHYSGSTYYNPSLKSRVTISVDTSKKQFSLKLSSVTAADTAVYYCARDLGCIGGVCSAYGLEHNYYFGMDVWGQGTTVTVSS VL: EIVLTQSPATLSLSPGERATLSCRASQSVSSYLAWYQQKPGQAPRLLIYTASNRATGIPARFSGSGSGTDFTLTISSLEPEDFAVYYCQQRSSWPPYTFGQGTKLEIK
3. ADI-41479 (antibody, V domains shown) VH: QVQLVQSGAEVKKPGESLKISCKGSGYSFISYWIGWVRQMPGKGLEWMGIIYPADSDTRYSPSFQGQVTISVDKSISTAYLQWSSLKASDTGMYYCVRYGVGGTAPRYWGQGTTVTVSS VL: NFMLTQPHSVSESPGKTVTISCTGSSGSIASNYVHWYQQRPGSAPTTVIYEDNQRPSGVPDRFSGSIDSSSNSASLTISGLKTEDEADYYCQSYDISNLWVFGGGTKLTVL
4. ADI-41529 (antibody, V domains shown) VH: EVQLVQSGAEVRRPGSSVKVSCKASGGTLDTDSISWVRQVPGQGLVWVGGVIPILGSVVYARKFQGRVTITADGSTSTAYMELRSLRSEDTAMYYCASQFYDFRRGYFDAFDIWGQGTTVTVSS VL: ETTLTQSPGILSLSPGERATLSCRATQTVISNYINWYQQKPGQAPRLLIYGASSRATGIPDRFSGSGSGTDFTLTISRLEPEDFAVYYCQRYDSSPPGFTFGPGTKVDIK
5. ADI-41508 (antibody, V domains shown, also called Ab 786; Antibody Number 786) VH: QVQLVQSGAEVRKPGASVKVSCKASGYGFRSYDLTWVRQAPGKGLEWVGWISAYSGGTNYAQTLQGRVTMTTDTSTSTAYMELRSLGPDDTAVYYCARAGLYGSGSPDGFDSWGQGTLVTVSS VL: SYELTQPPSVSVSPGQTASITCSGDKLGDKYASWYQQRPGQSPVLVISQDTKRPSGIPERFSGSTSGNTAILTISGTQAMDEADYYCLAWDSSTAWVFGGGTKLTVL

8.81
9.20
7.48
9.45
9.26

Report pKd for every entry below.
1. ADI-41543 (antibody, V domains shown) VH: QVQLVQSGAEVKKPGASVRVSCKASGYTLTGYYIHWLRQAPGQGLEWVGRINPNTGETSYSQKFQGRVIMTRDTSVSTAYVDLSRLRSRDTAVYFCARSDVMITVTAEGDFSYYYYRFDVWGQGTTVTVSS VL: DIVMTQTPLSLPVTPGEPASISCRSSQSLLHSNGHNYLDWYLQKPGQSPQLLIYLGSIRASGVSDRFSGSGSGTDFTLKISRVEAEDVGIYYCMQALQTPHFGGGTKVEIK
2. ADI-41495 (antibody, V domains shown) VH: QVQLVQSGGGLVEPGGSLRLSCAASGFTFSNTWMNWVRQAPGKGLTWVGRIKRKTDFGTSDYAAPVKGRFTISRDDSKNMVFLQMNSLKIEDTGVYYCTTHPRPYLDTTAVVYWGQGTLVTVSS VL: QPVLTQPHSVSESPGKTVTISCIGSSGSITSNYVQWFQQRPGSAPTTVIYEDDQRPSGVPDRFSGSIDSSSNSASLTISGLKTEDEADYYCQSYHHTNPWVFGGGTKLTVL
3. ADI-41507 (antibody, V domains shown) VH: QVTLKESGPTLVKPTQTLRLTCTFSGFSLNVISGVGVGWIRQPPGKALEWLALIYWDDDKRYSPSLKSRLTIAKDTSKNQVVLTMTNMDPVDTATYYCAHKGGSIEAAVGFDYWGQGTLVTVSS VL: QSVLTQPPSVSGAPGQRVIISCTGSSSNIGAGFAVHWYQQLPGTAPKLLIYANTNRPSGVPDRFSGSKSGTSASLAITGLQAEDEADYYCQSYDTSLSGFYVFGTGTKLTVL
4. ADI-41496 (antibody, V domains shown) VH: QVQLVQSGAEVKKPGASVKVSCKASGYTFTSDDINWVRQATGQGLEWMGWMNPNSGDTGYAQKFQGRVTMTRDTSISTAYMELSSLRSEDTAVYYCARVRIQCSGGRCSYWFFDLWGRGTLVTVSS VL: QSALTQPASVSGSPGQSITISCIGTSSDVGNYNLVSWYQHHPGKAPKVMIYEVNERPSGVSNRFSGSKSGNTASLTISGLQAEDEADYYCCSYAGRSTWVFGGGTKLTVL

1: 9.10; 2: 7.24; 3: 6.85; 4: 8.86

Source listed as patent US20260258115A1.
